molecular target: T1, MUC1 60-mer peptide NH2-(…)3-COOH (biotinylated in the ELISAs and selections); experiment: ELISA, soluble Fab, biotinylated MUC1 60-mer; relative signal
T1 construct: also called biotinylated MUC1 60-mer
T1 sequence (peptide, as listed by the source): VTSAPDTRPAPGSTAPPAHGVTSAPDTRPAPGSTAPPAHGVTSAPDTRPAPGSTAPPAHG
METRIC_NAME: binding result

# annotated cases, reported binding result shown
binder="10E10 (Fab, V domains shown, PH1 Fab variant) VH: QVQLVQSGGGLVQPGGSLRLSCAASGFTFRSNAMGWVRQAPGKGLEWVSGISGSGGSTYYADSVKGRFTISRDNSKNTLYLQMNSLRAEDTAVYYCAKHTGGGVWNPIDYWGQGTLVTVSS VL: EIVLTQSPLSLPVTPGEPASISCRSSQSLLHSNGYTYLDWYLQKPGQSPQLLIYSGSHRASGVPDRFSGSVSGTDFTLRISRVEAEDVGVYYCMQGLQSPFTFGPGTKVDIKR" test_result=binds
binder="11F4 (Fab, V domains shown, PH1 Fab variant) VH: QVQLVQSGGGLVQPGGSLRLSCAASGFTFRSNAMGWVRQAPGKGLEWVSGISGSGGSTYYADSVKGRFTISRDNSKNTLYLQMNSLRAEDTAVYYCAKHTGGGVWDPISSWGQGTLVTVSS VL: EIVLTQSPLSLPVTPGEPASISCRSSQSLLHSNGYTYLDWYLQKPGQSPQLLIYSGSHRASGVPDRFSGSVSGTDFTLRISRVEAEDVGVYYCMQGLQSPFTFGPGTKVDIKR" test_result=binds
binder="6E4 (Fab, V domains shown, PH1 Fab variant) VH: QVQLVQSGGGLVQPGGSLRLSCAASGFTFRSNAMGWVRQAPGKGLEWVSGISGSGGSTYYADSVKGRFTISRDNSKNTLYLQMNSLRAEDTAVYYCAKHTGGGVWDPVDYWGQGTLVTVSS VL: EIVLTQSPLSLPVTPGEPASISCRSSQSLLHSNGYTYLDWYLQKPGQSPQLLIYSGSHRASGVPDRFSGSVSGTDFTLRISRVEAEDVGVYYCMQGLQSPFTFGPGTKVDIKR" test_result=binds
binder="7D1 (Fab, V domains shown, PH1 Fab variant; also called clone 7D1) VH: QVQLVQSGGGLVQPGGSLRLSCAASGFTFRSNAMGWVRQAPGKGLEWVSGISGSGGSTYYADSVKGRFTISRDNSKNTLYLQMNSLRAEDTAVYYCAKHTGGGVWDPIKHWGQGTLVTVSS VL: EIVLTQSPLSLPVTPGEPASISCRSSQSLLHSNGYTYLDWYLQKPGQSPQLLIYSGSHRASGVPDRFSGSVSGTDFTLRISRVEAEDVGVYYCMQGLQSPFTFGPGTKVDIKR" test_result=binds
binder="7B5 (Fab, V domains shown, PH1 Fab variant) VH: QVQLVQSGGGLVQPGGSLRLSCAASGFTFRSNAMGWVRQAPGKGLEWVSGISGSGGSTYYADSVKGRFTISRDNSKNTLYLQMNSLRAEDTAVYYCAKHTGGGVWDPIAYWGQGTLVTVSS VL: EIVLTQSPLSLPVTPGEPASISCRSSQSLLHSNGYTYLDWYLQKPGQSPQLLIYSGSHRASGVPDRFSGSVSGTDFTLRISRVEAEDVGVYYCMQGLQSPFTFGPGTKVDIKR" test_result=binds

Parameters: items (list). Returns: binding result for each item.
1. 6C10 (Fab, V domains shown, PH1 Fab variant) VH: QVQLVQSGGGLVQPGGSLRLSCAASGFTFRSNAMGWVRQAPGKGLEWVSGISGSGGSTYYADSVKGRFTISRDNSKNTLYLQMNSLRAEDTAVYYCAKHTGGGVWDPIHYWGQGTLVTVSS VL: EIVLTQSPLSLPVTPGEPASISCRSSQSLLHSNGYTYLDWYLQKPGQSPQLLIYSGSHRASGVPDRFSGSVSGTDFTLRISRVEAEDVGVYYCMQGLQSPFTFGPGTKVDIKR
2. 6F4 (Fab, V domains shown, PH1 Fab variant) VH: QVQLVQSGGGLVQPGGSLRLSCAASGFTFRSNAMGWVRQAPGKGLEWVSGISGSGGSTYYADSVKGRFTISRDNSKNTLYLQMNSLRAEDTAVYYCSKHTGGGVWDPIGYWGQGTLVTVSS VL: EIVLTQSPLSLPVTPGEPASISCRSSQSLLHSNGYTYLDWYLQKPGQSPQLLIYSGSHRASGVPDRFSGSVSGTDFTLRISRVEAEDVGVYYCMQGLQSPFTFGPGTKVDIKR
3. 6C8 (Fab, V domains shown, PH1 Fab variant) VH: QVQLVQSGGGLVQPGGSLRLSCAASGFTFRSNAMGWVRQAPGKGLEWVSGISGSGGSTYYADSVKGRFTISRDNSKNTLYLQMNSLRAEDTAVYYCAKHTGGGVWDPINDWGQGTLVTVSS VL: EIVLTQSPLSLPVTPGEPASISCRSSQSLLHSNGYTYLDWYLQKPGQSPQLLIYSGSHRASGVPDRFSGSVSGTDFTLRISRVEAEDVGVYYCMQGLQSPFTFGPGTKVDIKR
4. 8F5 (Fab, V domains shown, PH1 Fab variant) VH: QVQLVQSGGGLVQPGGSLRLSCAASGFTFRSNAMGWVRQAPGKGLEWVSGISGSGGSTYYADSVKGRFTISRDNSKNTLYLQMNSLRAEDTAVYYCAKHTGGGVWDPIAYWGQGTLVTVSS VL: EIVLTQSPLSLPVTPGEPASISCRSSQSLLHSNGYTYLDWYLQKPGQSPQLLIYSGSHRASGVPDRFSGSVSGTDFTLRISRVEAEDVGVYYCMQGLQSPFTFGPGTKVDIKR
5. 11G9 (Fab, V domains shown, PH1 Fab variant) VH: QVQLVQSGGGLVQPGGSLRLSCAASGFTFRSNAMGWVRQAPGKGLEWVSGISGSGGSTYYADSVKGRFTISRDNSKNTLYLQMNSLRAEDTAVYYCAKHTGGGVWDPIGYWGQGTLVTVSS VL: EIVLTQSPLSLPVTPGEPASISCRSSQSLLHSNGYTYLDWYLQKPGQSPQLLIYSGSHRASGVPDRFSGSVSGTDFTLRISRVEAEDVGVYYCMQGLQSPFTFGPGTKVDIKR

1: binds; 2: binds; 3: binds; 4: binds; 5: binds
